Hello, the source for this data is ChEMBL document CHEMBL1938313, in case you need it.

Tested on: HL-60
Protocol notes: Cell cycle arrest in human HL60 cells assessed as accumulation at G0/G1 phase at 100 nM after 24 hrs by propidium iodide based flow cytometry analysis (reference value: 50.6 %)
Format: functional
Readout type: Activity (%)
One number for each entry, in %.

Use these answered entries as a reference point.
COc1ccc(/C=C2\Oc3c(cc(OC)c(OC)c3OC)C2=O)cc1N
39
COc1ccc(/C=C2\Oc3c(cc(OC)c(OC)c3OC)C2=O)cc1O
40.3
COc1ccc(-c2oc3c(OC)c(OC)c(OC)c(O)c3c(=O)c2OC)cc1N
40.3

Consider the record given below.
Prompt: What value of Activity has been recorded for this entry: `COc1ccc(/C=C2\Oc3c(cc(OC)c(OC)c3OC)C2=O)c(O)c1O`
Completion: 9.8

###

System: HL-60
Protocol notes: Cell cycle arrest in human HL60 cells assessed as accumulation at Sub G1 phase at 100 nM after 24 hrs by propidium iodide based flow cytometry analysis (reference value: 2.3 %)
Type: functional
Would you mind telling me the reported Activity of each entry?
Give bare numbers, in %.

Use these answered entries as a reference point.
COc1ccc(/C=C2\Oc3c(cc(OC)c(OC)c3OC)C2=O)cc1N
13.9
COc1ccc(/C=C2\Oc3c(cc(OC)c(OC)c3OC)C2=O)cc1O
14.4
COc1ccc(/C=C2\Oc3c(cc(OC)c(OC)c3OC)C2=O)c(O)c1O
14

Consider the record given below.
Prompt: What value of Activity has been recorded for this entry: `COc1ccc(-c2oc3c(OC)c(OC)c(OC)c(O)c3c(=O)c2OC)cc1N`
Completion: 8.9

###

Organism: Ovis aries
Protocol notes: Inhibition of sheep brain tubulin polymerization at 2 x 10 '-5 M after 10 mins by turbidimetry
Readout type: inhibition (%)
Numbers only, in %.

Use these answered entries as a reference point.
COc1ccc(/C=C2\Oc3c(cc(OC)c(OC)c3OC)C2=O)cc1O
21
COc1ccc(/C=C2\Oc3c(cc(OC)c(OC)c3OC)C2=O)cc1[N+](=O)[O-]
12
COc1ccc(/C=C2\Oc3c(cc(OC)c(OC)c3OC)C2=O)cc1N
33

Consider the record given below.
Prompt: What value of inhibition has been recorded for this entry: `COc1cc(OC)c(/C=C2\Oc3c(cc(OC)c(OC)c3OC)C2=O)cc1N`
Completion: 12

###

System: HL-60
Protocol notes: Cell cycle arrest in human HL60 cells assessed as accumulation at G2/M phase at 100 nM after 24 hrs by propidium iodide based flow cytometry analysis (reference value: 24.8 %)
Type: functional
Readout type: Activity (%)
Give bare numbers, in %.

COc1ccc(/C=C2\Oc3c(cc(OC)c(OC)c3OC)C2=O)cc1N
28.4
COc1ccc(/C=C2\Oc3c(cc(OC)c(OC)c3OC)C2=O)cc1O
24.7
COc1ccc(-c2oc3c(OC)c(OC)c(OC)c(O)c3c(=O)c2OC)cc1N
33.3

Prompt: What value of Activity has been recorded for this entry: `COc1ccc(/C=C2\Oc3c(cc(OC)c(OC)c3OC)C2=O)c(O)c1O`
Completion: 52.5

###

Would you mind telling me the reported pIC50 of each entry?
Protocol notes: Inhibition of sheep brain tubulin polymerization after 10 mins by turbidimetry analysis
Design: species or system Ovis aries
Numbers only, as −log10 of the molar value.

Batch request: pIC50 for each of the following molecules.
1. COc1ccc(-c2oc3c(OC)c(OC)c(OC)c(O)c3c(=O)c2OC)cc1N
2. COc1ccc(/C=C2\Oc3c(cc(OC)c(OC)c3OC)C2=O)c(O)c1O

Completion:
[5.05, 5.07]

###

Test system: HL-60
Protocol notes: Cell cycle arrest in human HL60 cells assessed as accumulation at G0/G1 phase at 100 nM after 48 hrs by propidium iodide based flow cytometry analysis (reference value: 51.2 %)
Type: functional
Readout type: Activity (%)
One number for each entry, in %.

Use these answered entries as a reference point.
COc1ccc(/C=C2\Oc3c(cc(OC)c(OC)c3OC)C2=O)cc1N
42.6
COc1ccc(-c2oc3c(OC)c(OC)c(OC)c(O)c3c(=O)c2OC)cc1N
33.1
COc1ccc(/C=C2\Oc3c(cc(OC)c(OC)c3OC)C2=O)c(O)c1O
31.4

Consider the record given below.
Prompt: Checklist item: Activity tested on HL-60, entry `COc1ccc(/C=C2\Oc3c(cc(OC)c(OC)c3OC)C2=O)cc1O` , value?
Completion: 35.1
